Target: furin, P09958;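 note: purified furin at 1:10 enzyme:substrate in 50 mM HEPES pH 7.5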
Sequence (P09958 whole entry): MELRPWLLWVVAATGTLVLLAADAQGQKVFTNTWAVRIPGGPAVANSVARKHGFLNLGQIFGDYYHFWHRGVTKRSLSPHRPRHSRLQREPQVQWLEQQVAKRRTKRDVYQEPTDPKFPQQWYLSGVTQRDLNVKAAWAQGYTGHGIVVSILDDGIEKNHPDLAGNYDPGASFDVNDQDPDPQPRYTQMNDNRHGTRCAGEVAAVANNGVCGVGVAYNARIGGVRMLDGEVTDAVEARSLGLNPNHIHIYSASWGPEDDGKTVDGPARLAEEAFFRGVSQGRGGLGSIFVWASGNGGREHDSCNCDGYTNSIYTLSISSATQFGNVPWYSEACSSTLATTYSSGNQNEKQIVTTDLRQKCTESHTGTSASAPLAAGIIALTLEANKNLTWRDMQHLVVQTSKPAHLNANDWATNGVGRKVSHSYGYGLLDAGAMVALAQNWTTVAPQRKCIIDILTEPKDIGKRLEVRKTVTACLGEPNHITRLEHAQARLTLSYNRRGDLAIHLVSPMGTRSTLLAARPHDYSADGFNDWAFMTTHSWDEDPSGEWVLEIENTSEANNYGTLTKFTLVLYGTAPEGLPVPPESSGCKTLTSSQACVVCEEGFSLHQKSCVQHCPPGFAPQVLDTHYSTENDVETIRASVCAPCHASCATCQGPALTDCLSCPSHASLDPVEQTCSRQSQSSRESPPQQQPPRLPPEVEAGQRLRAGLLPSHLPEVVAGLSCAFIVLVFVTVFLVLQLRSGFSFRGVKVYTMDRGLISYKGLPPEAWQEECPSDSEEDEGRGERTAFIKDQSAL
Assay: furin cleavage Z-score vs untreated control; higher = more cleavage, active = 3.5 or more, inactive = 1 or less, 8 variable residues between constant flanks
Conditions: 30 min
Some of the results follow. The true hit rate is not given.
attribute.measured: furin cleavage Z-score
Respond with the number and no other words.

What does the record list as furin cleavage Z-score for CARRKKSQDGAGNASASA [FS-1775] ?
0.531

Now this one: CARRVRDKDGAGNASASA [FS-2300]
2.04

Now this one: CARRKRQVRRAGNASASA [FS-2370]
6.39

Now this one: CALVHRVKRRAGNASASA [FS-274]
10.7

Now this one: CAGDSRVMRWAGNASASA [FS-591]
0.578

Now this one: CAVSPTHYVPAGNASASA [HC1125]
-0.874

Now this one: CALSPRVKRIAGNASASA [FS-687]
8.69
